Tested on: MOLT-4 leukemia
Experiment: NCI tumour cell line growth inhibition, 48 h
assay_readout: TGI

-- ask Please tell me: TGI of `Cc1cccc(C(C)C)c1NC(=O)CCl` , system MOLT-4 leukemia?
-- reply > 100 µM

-- ask Which TGI is reported with MOLT-4 leukemia for this entry: CC(=O)N1C(Nc2cccc3nc(C)ccc23)CCN1c1ccccc1 (stereo unspecified) ?
-- reply > 10 µM

-- ask Lab request: please report TGI under test system MOLT-4 leukemia for `C[C@@H](Oc1cc(-n2cnc3ccc(OCC4CCN(C)CC4)cc32)sc1C(N)=O)c1ccccc1Cl`
-- reply 3.13 µM

Would you be so kind as to report TGI for each listed record?
1. O=c1c2c(=NCCN3CCCC3)cc3c(=O)n(CCCN4CCOCC4)c(=O)c4ccc(c(O)n1CCCN1CCOCC1)c2c4-3
2. Cc1ccc(C#CS(=O)(=O)C(F)(F)F)cc1
3. Cc1c2cccc-2c(OCCOC(=O)n2ccnc2)cc2c1[nH]c1ccccc12
4. COc1cc2c(c(OC)c1OC)-c1ccc(SC)c(=O)cc1[C@@H](NCc1cccc([N+](=O)[O-])c1)CC2

-- reply
1. 5.71 µM
2. > 100 µM
3. 25.2 µM
4. > 100 µM

Please state TGI for every compound in the list that follows.
1. CCCC(C)c1c(Cl)nc(Cl)nc1Cl (stereo unspecified)
2. COc1ccc(C(=O)/C=C/c2cc(-c3ccc4c(c3)OCO4)n[nH]2)cc1OC
3. S=C(N/N=C(\C(=N/NC(=S)N1CCCCC1)c1ccccn1)c1ccccn1)N1CCCCC1
4. O=S1c2ccccc2NC(c2ccc3ccccc3c2)CC1c1ccccc1 (stereo unspecified)

-- reply
1: > 100 µM; 2: 10.3 µM; 3: > 100 µM; 4: 70.3 µM

For the 4 compounds below, give their TGI values.
1. CN(C)C=NCC(O)c1ccccc1 (stereo unspecified)
2. CCSc1ccc([C@@H]2[C@@H](N)C(=O)N2c2cc(OC)c(OC)c(OC)c2)cc1
3. O=C1NC(=O)[C@@H](c2c[nH]c3ccccc23)[C@@H]1c1c[nH]c2ccccc12
4. COc1ccc(-c2nc(-c3ccccn3)c(-c3ccccn3)n2CC(C)C)cc1OC1CCCC1

-- reply
1: > 100 µM; 2: > 100 µM; 3: > 25 µM; 4: 61.6 µM

Please go through the list and note TGI for each compound.
1. O=C1CCC2(c3ccc(Cl)cc3)Nc3ncncc3N12 (stereo unspecified)
2. CCC(C)c1cccc(C)c1NC(=O)C(=O)Cc1nc2ccccc2s1 (stereo unspecified)
3. COc1cnc2c(c1)C(=O)c1c-2n(CCCNCCN2CCOCC2)c(=O)c2cc([N+](=O)[O-])ccc12
4. CNc1ccc([N+](=O)[O-])c2c(NCCCN(C)C)ccnc12
5. N#Cc1ccc2[nH]c3c(c2c1)CC(=O)Nc1ccccc1-3
6. COc1ccc(Cn2c3ccc([N+](=O)[O-])cc3c(=O)n2Cc2ccccn2)cc1

-- reply
> 10 µM
> 100 µM
0.269 µM
> 100 µM
> 100 µM
> 100 µM

Numbers sourced from PubChem BioAssay (NCI).
